Where these numbers come from: ChEMBL document CHEMBL1201862

Quick reference: GI50 of the listed items.
system: KM12; assay: NCI tumour cell line growth inhibition, 48 h
Active and inactive are the calls of the source. No stated cut-off is given here; in the data, active = GI50 up to about 1.1 µM and inactive = higher.

>  <Compound>
O=C1C=CC2(CCC23C=CC(=O)O3)O1 (stereo not given)

>  <GI50>
> 100 µM (inactive)

$$$$
>  <Compound>
CC(C)c1ccccc1SC1CC(=O)CC(Sc2ccccc2C(C)C)C12O[C@H](c1ccccc1)[C@@H](c1ccccc1)O2 (stereo not given in full)

>  <GI50>
59.6 µM (inactive)

$$$$
>  <Compound>
CCCCCCCCCCCC[N+]12CC[N+](CCN)(CC1)CC2

>  <GI50>
23.7 µM (inactive)

$$$$
>  <Compound>
O=C1C(/N=N/c2ccc(-c3nc4ccccc4o3)cc2)NC(=S)N1c1ccccc1 (stereo not given)

>  <GI50>
> 100 µM (inactive)

$$$$
>  <Compound>
CC(C)[C@](O)(C(=O)OCC1=CC[N+]2([O-])CC[C@@H](O)[C@@H]12)[C@H](C)O (stereo not given in full) [INDICINE N-OXIDE]

>  <GI50>
> 10000 µM (inactive)

$$$$
